Tested on: ACHN renal
Assay: NCI tumour cell line growth inhibition, 48 h
Assay Metric: log10 TGI (log10 of the value in µM)

Compound | log10 TGI
COC(=O)c1ccc2c(c1)C(=O)c1c-2n(CCCN=[N+]=[N-])c(=O)c2cc([N+](=O)[O-])ccc12 | 1.46
COc1ccc(C2c3cc4c(cc3OC(NCCO)C2C)OCO4)cc1 (centres undefined) | 1.97
C[n+]1c(/C=C/c2ccc(O)c3ncccc23)[se]c2ccccc21 | 0.93
CCCCCCCCCCCCCC[n+]1cccc(C(N)=O)c1 | 1.25
C[C@]12C/C(=C/O)C(=O)C(O)=C1CC[C@@H]1C2CC[C@@]2(C)C1CC[C@@H]2O (some centres undefined) | 1.86

* * *

System: UO-31 renal
Test: NCI tumour cell line growth inhibition, 48 h
Assay Metric: GI50

Molecule Smiles | Target Of Assay | Observed
CC(C)Oc1ccc(C(=O)Cn2ccnc2)cc1-n1c(CN2CCN(C(=O)COc3ccc(Cl)cc3)CC2)nc2ccccc2c1=O | UO-31 renal | 1560 nM
COC(=O)c1ccc2c(c1)C(=O)c1c-2n(CCCN=[N+]=[N-])c(=O)c2cc([N+](=O)[O-])ccc12 | UO-31 renal | > 100000 nM
COc1cc2nc(-c3ccc(C(F)(F)F)cc3)cc(OCCCN3CCCC3)c2cc1OC | UO-31 renal | 1590 nM
CCn1c(-c2nonc2N)nc2ccncc21 | UO-31 renal | > 25000 nM
Fc1ccc2nc(-c3cc(-c4ccc5c(c4)OCO5)n[nH]3)[nH]c2c1 | UO-31 renal | 2500 nM

* * *

Tested on: TK-10 renal
Assay: NCI tumour cell line growth inhibition, 48 h
The entries below come with measured TGI values attached.
Assay Metric: TGI

Molecule | Assay Metric | Observed
N#CC(C#N)=c1c2nsnc2c(=C(C#N)C#N)c2nsnc12 | TGI | 31.3 µM
CCNc1ncnc2sc(SCc3ccccc3)nc12 | TGI | > 100 µM
COc1ccc2c(NCCCCCCNc3c4ccccc4nc4cc(OC)ccc34)c3ccccc3nc2c1 | TGI | 4.56 µM
c1ccc(-c2nc(N3CCCNCC3)c3nc(-c4ccccc4)oc3n2)cc1 | TGI | 3 µM
CN1CCN(C2=C(Cl)C3(OCCS3)C(F)(F)C2(F)F)CC1 (stereo unspecified) | TGI | > 100 µM
O=C1C(C(O)(C(F)(F)F)C(F)(F)F)CCC1C(O)(C(F)(F)F)C(F)(F)F (stereo unspecified) | TGI | > 100 µM
O=C1OC(c2ccccc2)N(C(=O)c2ccccc2)C1Cc1ccc(OCc2ccccc2)cc1 (stereo unspecified) | TGI | > 100 µM
Cc1ccc(NC(=O)/C(Cc2nc3ccc([N+](=O)[O-])cc3[nH]c2=O)=N\NC(=O)C[n+]2ccccc2)c(C)c1 | TGI | 64.4 µM
C=C1C2Oc3ccccc3C1N(c1ccccc1)O2 (stereo unspecified) | TGI | > 100 µM
O=C1c2ccccc2-c2c1c1ccccc1c(=O)n2CCNCCn1c2c(c3ccccc3c1=O)C(=O)c1ccccc1-2 | TGI | > 25 µM
CON(C)C(=O)C1CCCO1 (stereo unspecified) | TGI | > 100 µM
Cc1cc(NS(=O)(=O)c2ccc(NC(NC(=O)C(C(F)(F)F)C(F)(F)F)(C(F)(F)F)C(F)(F)F)cc2)no1 | TGI | > 100 µM
CCOC(=O)C1=CC(C)(C(=O)OCC)Nc2c(nc(N)[nH]c2=O)N1 (stereo unspecified) | TGI | > 10 µM
Cn1c(=O)nc2n(-c3ccc(Cl)c(C(F)(F)F)c3)c3ccccc3nc-2c1=O | TGI | > 100 µM
COP(=O)(OC)C(Nc1ccc(Cc2ccc(NC(c3ccco3)P(=O)(OC)OC)cc2)cc1)c1ccco1 (stereo unspecified) | TGI | 29.3 µM
O=c1[nH]c2cc([N+](=O)[O-])ccc2nc1/C(=N\Nc1ccccc1)C(O)c1ccc2c(c1)OCO2 (stereo unspecified) | TGI | > 100 µM
N.N.N.N.N.O=S(=O)([O-])S(=O)(=O)[O-].[Co+3] | TGI | > 100 µM
Cc1cc(O)c(-c2cc(O)c(C)cc2O)cc1O | TGI | 16 µM
COc1nc2c(N3CCCC3)nc(N3CCNCC3)nc2nc1NCc1ccccc1 | TGI | 5.78 µM
C[n+]1c(/C=C/c2ccc(O)c3ncccc23)[se]c2ccccc21 | TGI | 10.9 µM
O=C(O)c1ccccc1C(=O)c1ccc2c(c1)Cc1ccccc1-2 | TGI | > 100 µM

* * *

System: UACC-257 melanoma
Assay: NCI tumour cell line growth inhibition, 48 h
Returns one of met or not met; met when TGI is >= 30 µM.

Molecule | Target Of Assay | Label Value
C/C(=N\Nc1nc2ccccc2s1)c1ccc2ccccc2n1 | UACC-257 melanoma | met
c1ccc(-c2nc(N3CCCNCC3)c3nc(-c4ccccc4)oc3n2)cc1 | UACC-257 melanoma | not met
O=S1(=O)C[C@@H](NCc2ccccc2)[C@H](NCc2ccccc2)C1 | UACC-257 melanoma | met
O=C(O)c1ccccc1C(=O)c1ccc2c(c1)Cc1ccccc1-2 | UACC-257 melanoma | met
Cc1c(C)c(CC(=O)N2CC2)c(C)c(C)c1CC(=O)N1CC1 | UACC-257 melanoma | met
O=C1c2ccccc2-c2c1c1c(NCCCO)nc3ccccc3c1n2Cc1ccccc1 | UACC-257 melanoma | met
Cc1cc(C)n(C2=NS(=O)(=O)c3ccccc3N2C)n1 | UACC-257 melanoma | met
Cc1nc(-c2cccnc2)sc1C(=O)/C=C/c1cccc([N+](=O)[O-])c1 | UACC-257 melanoma | met
Nc1ccccc1C(=O)C(Br)C(Br)c1ccc2c(c1)OCO2 (centres undefined) | UACC-257 melanoma | met
Clc1ccc2c(c1)N(c1ncnc3ccc(-c4cnc5[nH]ncc5c4)cc13)CC2 | UACC-257 melanoma | met
CC(C)/C(Cl)=N/OC(=O)Nc1ccc(OC(F)(F)F)cc1 | UACC-257 melanoma | not met
CCCCCCC(C)CCCCCCCCCCC(=O)O (centres undefined) | UACC-257 melanoma | met
Cc1ccc(C)c(N2C(=O)C(=O)C(c3nc4ccccc4s3)C(=Nc3cccc4c(=O)[nH][nH]c(=O)c34)C2=O)c1 (centres undefined) | UACC-257 melanoma | met
COC(=O)c1ccc2c(c1)C(=O)c1c-2n(CCCN=[N+]=[N-])c(=O)c2cc([N+](=O)[O-])ccc12 | UACC-257 melanoma | met
O=[N+]([O-])c1cc(Cl)ccc1Sc1ccccc1 | UACC-257 melanoma | met
c1cnn2ncc(-c3ccnc(Nc4ccc5c(c4)OCCO5)n3)c2c1 | UACC-257 melanoma | not met
O=C1C(C(O)(C(F)(F)F)C(F)(F)F)CCC1C(O)(C(F)(F)F)C(F)(F)F (centres undefined) | UACC-257 melanoma | met
[2H]c1nc(=Nc2cc(NC(=O)C=C)c(N(C)CCN(C)C)cc2OC)[nH]c(-c2cn(C([2H])([2H])[2H])c3ccccc23)c1[2H] | UACC-257 melanoma | not met
CCN(CC)CCO/N=C1\CC[C@H]2[C@@H]3CCc4cc(OC)ccc4[C@H]3CC[C@]12C | UACC-257 melanoma | not met
COc1ccc(C(=O)c2nc3ccccc3n2CC(=O)c2ccc(Cl)cc2)cc1 | UACC-257 melanoma | met
COc1ccc2c(c1)c(=O)c1c(NCCNCCO)ccc3c(=O)n(CCN(C)C)c(=O)n2c31 | UACC-257 melanoma | not met
CSc1nc2c(ncn2C2OC(CO)C(O)C(O)C2O)c(=O)[nH]1 (centres undefined) | UACC-257 melanoma | met
CCCCCCCCCCCC1CC(=O)NCCCN(C)CCCCN(C)CCCN1C (centres undefined) | UACC-257 melanoma | not met
O=[N+]([O-])c1cccc2c(N=Nc3ccc4ccccc4c3O)c(O)cc(S(=O)(=O)O)c12 | UACC-257 melanoma | met
COc1nc2c(N3CCCC3)nc(N3CCNCC3)nc2nc1NCc1ccccc1 | UACC-257 melanoma | not met
COc1ccc2[nH]c(-c3ccc(O)cc3)cc(=O)c2c1 | UACC-257 melanoma | met
C=CC(=O)N1C/C(=C\c2ccc(Cl)cc2)C(=O)/C(=C/c2ccc(Cl)cc2)C1 | UACC-257 melanoma | not met
N#C/C(=C1\SC(N=Nc2ccc(Cl)cc2)C(=O)N1c1ccccc1)c1nc2ccccc2[nH]1 (centres undefined) | UACC-257 melanoma | met
CC(=O)n1c(=O)c2cc3c(=O)n(-c4cccc(C#N)c4)c(=O)c3cc2c1=O | UACC-257 melanoma | met
Cc1ccc(NC(=O)/C(Cc2cc(=O)oc3cc(O)ccc23)=N\NC(=O)C[N+](C)(C)C)cc1C | UACC-257 melanoma | met
O=C1c2cccc(O)c2C(=O)c2c(OC3OC(CO)C(O)C(O)C3O)cccc21 (centres undefined) | UACC-257 melanoma | met
COc1cccc2c(=O)c3c(sc12)c(NCCCNCCO)nc1ccccc13 | UACC-257 melanoma | not met
COC(=O)[C@H](Cc1ccccc1)NC(=O)N(CCC#N)CCN(C(=O)N[C@@H](Cc1ccccc1)C(=O)OC)c1ccccc1 | UACC-257 melanoma | met
O=C(OCC1OC(n2nc(Cn3nnc(-c4cccnc4)n3)n(-c3cccc4ccccc34)c2=S)C(OC(=O)c2ccccc2)C1OC(=O)c1ccccc1)c1ccccc1 (centres undefined) | UACC-257 melanoma | met
Cn1c(=O)nc2n(-c3ccc(Cl)c(C(F)(F)F)c3)c3ccccc3nc-2c1=O | UACC-257 melanoma | met
CC1(C)CC(=O)C(CC2C(=O)c3ccccc3C2=O)C(=O)C1 | UACC-257 melanoma | met
